Source of measurements: patent US10934282B2

System: IL-17A in Human peripheral mononuclear cells
test_summary: Human PBMC IL-17A assay
Format: cell-based
measurement_context: 72 h, EC50, antiCD3/antiCD28-coated beads, 3 days, alpha-LISA
Criterion: EC50 strictly less than 200 nM. Met: met. Not met: not met.

Does the reported EC50 of Cc1cc(CN2CCN(C(=O)OC(C)C)[C@@H](C)C2)c(C)c(Nc2nnc([C@@H](N)[C@@H](C)O)o2)c1 [Example 41] stay below 200 nM?
not met

Does the reported EC50 of Cc1cc(CN2CCN(C(=O)OC(C)C)[C@@H](C)C2)c(C)c(Nc2nnc(CC#N)o2)c1 [Example 42] stay below 200 nM?
met

Does the reported EC50 of Cc1c(CN2CCN(C(=O)c3ccccc3)[C@@H](C)C2)cc(Cl)cc1Nc1nnc(C2CCCO2)o1 (stereo partly drawn) [Example 4] stay below 200 nM?
met

Does the reported EC50 of Cc1cc(CN2CCN(C(=O)C3CCCC3)[C@@H](C)C2)c(C)c(Nc2nnc([C@@H](C)O)o2)c1 [Example 24] stay below 200 nM?
met

Does the reported EC50 of CC[C@H](O)c1nnc(Nc2cc(C)cc(CN3CCN(C(=O)OC(C)C)[C@@H](C)C3)c2C)o1 [Example 62] stay below 200 nM?
met

Does the reported EC50 of Cc1cc(CN2CCN(C(=O)C3CC3C)[C@@H](C)C2)c(C)c(Nc2nnc([C@@H](C)O)o2)c1 (stereo partly drawn) [Example 23] stay below 200 nM?
not met

* * *

Test system: IL-17A in Human peripheral mononuclear cells
test_summary: Human PBMC IL-17A assay
Type: cell-based
measurement_context: 72 h, EC50, antiCD3/antiCD28-coated beads, 3 days, alpha-LISA
endpoint_name: pEC50
Answers are plain numbers, as −log10 of the molar value.

Observe how each entry below is paired with its result.
Cc1c(CN2CCN(C(=O)OC(C)C)[C@@H](C)C2)cc(Cl)cc1Nc1nnc([C@@H](C)O)o1 [Example 39] ... 7.42
Cc1c(CN2CCN(C(=O)OC(C)C)[C@@H](C)C2)cc(C(F)F)cc1Nc1nnc([C@H](C)O)o1 [Example 43] ... 7.20
Cc1cc(CN2CCN(C(=O)OCC(F)(F)F)[C@@H](C)C2)c(C)c(Nc2nnc([C@H]3NCC[C@H]3O)o2)c1 [Example 81] ... 5.82

Hey, quick one: what's pEC50 for each of these?
1. Cc1cc(CN2CCN(C(=O)OC(C)C)[C@@H](C)C2)c(C)c(Nc2nnc([C@H](C)O)o2)c1 [Example 66]
2. COCc1nnc(Nc2cc(Cl)cc(CN3CCN(C(=O)c4ccccc4)[C@@H](C)C3)c2C)o1 [Example 2]
3. COCc1nnc(Nc2cc(Cl)cc(CN3CCN(C(=O)C4CCC4)[C@@H](C)C3)c2C)o1 [Example 12]
4. Cc1cc(CN2CCN(C(=O)OC(C)(C)C)[C@@H](C)C2)c(C)c(Nc2nnc(-c3cnsn3)o2)c1 [Example 33]

7.11
6.86
6.89
7.34

* * *

System: IL-17A in Human peripheral mononuclear cells
test_summary: Human PBMC IL-17A assay
Format: cell-based
measurement_context: 72 h, EC50, antiCD3/antiCD28-coated beads, 3 days, alpha-LISA
pEC50: −log10 of the molar value.
# label = Satisfied if pEC50 >= 7 else Not satisfied

As a guide, the following entries are already answered.
Cc1c(CN2CCN(C(=O)OC(C)C)[C@@H](C)C2)cc(Cl)cc1Nc1nnc(C2CCCOC2)o1 (some centres unmarked) ... Satisfied
CCC(F)(F)C(=O)N1CCN(Cc2cc(Cl)cc(Nc3nnc(COC)o3)c2C)C[C@@H]1C ... Not satisfied
Cc1cc(CN2CCN(C(=O)OC(C)(C)C)[C@@H](C)C2)c(C)c(Nc2nnc(-c3nonc3C)o2)c1 ... Satisfied
Cc1c(CN2CCN(C(=O)OC(C)C)[C@@H](C)C2)cc(Cl)cc1Nc1nnc(C2CCNC2=O)o1 (some centres unmarked) ... Not satisfied
Cc1cc(CN2CCN(C(=O)C3CC3)[C@@H](C)C2)c(C)c(Nc2nnc(CC#N)o2)c1 ... Not satisfied

Assess whether reported pEC50 for Cc1c(CN2CCN(C(=O)OC(C)C)[C@@H](C)C2)cc(Cl)cc1Nc1nnc(C2(O)CC2)o1 sits at 7 or higher.
Satisfied

Assess whether reported pEC50 for Cc1cc(CN2CCN(C(=O)C3CCC(F)(F)C3)[C@@H](C)C2)c(C)c(Nc2nnc([C@H]3NCC[C@H]3O)o2)c1 (some centres unmarked) sits at 7 or higher.
Not satisfied

Assess whether reported pEC50 for Cc1cc(CN2CCN(C(=O)OC(C)C)[C@@H](C)C2)c(C)c(Nc2nnc([C@H](C)N)o2)c1 sits at 7 or higher.
Not satisfied

Assess whether reported pEC50 for Cc1c(CN2CCN(C(=O)c3ccccc3)[C@@H](C)C2)cc(Cl)cc1Nc1nnc(C#N)o1 sits at 7 or higher.
Not satisfied

Assess whether reported pEC50 for Cc1c(CN2CCN(C(=O)C3CCC3)[C@@H](C)C2)cc(C(F)F)cc1Nc1nnc([C@H](C)O)o1 sits at 7 or higher.
Not satisfied

* * *

Would you mind telling me the reported pEC50 of each entry?
target_under_test: human RORgt nuclear receptor (RORgT ligand binding domain protein) (Homo sapiens)
test_summary: ROR-gamma binding assay (Scintillation Proximity Assay, displacement of [3H]-25-hydroxycholesterol)
measurement_context: EC50, SPA, 15 nM [3H]-25-Hydroxycholesterol, RORgT LBD 12 nM
Answers are plain numbers, as −log10 of the molar value.

Observe how each entry below is paired with its result.
Cc1c(CN2CCN(C(=O)OC(C)C)[C@@H](C)C2)cc(Cl)cc1Nc1nnc([C@@H](C)O)o1 ... 7.53
Cc1cc(CN2CCN(C(=O)C3CCC3)[C@@H](C)C2)c(C)c(Nc2nnc(C)o2)c1 ... 7.21
Cc1cc(CN2CCN(C(=O)C3CCCC3)[C@@H](C)C2)c(C)c(Nc2nnc([C@H]3NCC[C@H]3O)o2)c1 ... 7.14
Cc1cc(CN2CCN(C(=O)CC3CCC3)[C@@H](C)C2)c(C)c(Nc2nnc([C@@H](C)O)o2)c1 ... 7.24
Cc1c(CN2CCN(C(=O)OC(C)C)[C@@H](C)C2)cc(Cl)cc1Nc1nnc(C2CCCOC2)o1 (stereo partly drawn) ... 7.64
Cc1cc(CN2CCN(C(=O)C3CCC3)[C@@H](C)C2)c(C)c(Nc2nnc([C@H](C)O)o2)c1 ... 6.95
Cc1cc(CN2CCN(C(=O)O[C@H](C)C(F)(F)F)[C@@H](C)C2)c(C)c(Nc2nnc([C@@H](O)CO)o2)c1 ... 7.49
Cc1c(CN2CCN(C(=O)OC(C)C)[C@@H](C)C2)cc(Cl)cc1Nc1nnc(C2CCNC2=O)o1 (stereo partly drawn) ... 7.43
Cc1c(CN2CCN(C(=O)c3ccccc3)[C@@H](C)C2)cc(Cl)cc1Nc1nnc(C2CCCO2)o1 (stereo partly drawn) ... 7.52
COCc1nnc(Nc2cc(Cl)cc(CN3CCN(C(=O)c4ccccc4F)[C@@H](C)C3)c2C)o1 ... 7.63

Hey, quick one: what's pEC50 for each of these?
1. Cc1c(CN2CCN(C(=O)OC(C)C)[C@@H](C)C2)cc(Cl)cc1Nc1nnc(C2(O)CC2)o1
2. Cc1cc(CN2CCN(C(=O)OC(C)C)[C@@H](C)C2)c(C)c(Nc2nnc([C@@H](O)CO)o2)c1
3. Cc1c(CN2CCN(C(=O)OC(C)C)[C@@H](C)C2)cc(C(F)F)cc1Nc1nnc([C@@H](C)O)o1
4. Cc1cc(CN2CCN(C(=O)OC(C)C)[C@@H](C)C2)c(C)c(Nc2nnc(C[C@@H](O)C(F)(F)F)o2)c1
5. Cc1cc(CN2CCN(C(=O)OCC(F)(F)F)[C@@H](C)C2)c(C)c(Nc2nnc([C@H]3C[C@@H](O)C3)o2)c1

7.38
7.09
7.50
7.62
7.28

* * *

target_under_test: human RORgt nuclear receptor (RORgT ligand binding domain protein) (Homo sapiens)
Sequence (P51449 with tags, fused parts or gaps): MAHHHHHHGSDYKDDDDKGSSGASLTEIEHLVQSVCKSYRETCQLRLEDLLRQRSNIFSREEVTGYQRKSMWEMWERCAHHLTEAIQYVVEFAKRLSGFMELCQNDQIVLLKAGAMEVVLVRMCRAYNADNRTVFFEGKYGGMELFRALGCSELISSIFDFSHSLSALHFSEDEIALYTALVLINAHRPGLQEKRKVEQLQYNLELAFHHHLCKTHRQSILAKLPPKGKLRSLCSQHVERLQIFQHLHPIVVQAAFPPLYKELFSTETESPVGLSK
test_summary: ROR-gamma binding assay (Scintillation Proximity Assay, displacement of [3H]-25-hydroxycholesterol)
measurement_context: EC50, SPA, 15 nM [3H]-25-Hydroxycholesterol, RORgT LBD 12 nM
Criterion: EC50 strictly less than 40 nM. Met: 1. Not met: -1.

Cc1cc(CN2CCN(C(=O)OC(C)C)[C@@H](C)C2)c(C)c(Nc2nnc(C3CNC(=O)C3)o2)c1 (some centres unmarked) ... -1

Does the reported EC50 of Cc1cc(CN2CCN(C(=O)OC(C)C)[C@@H](C)C2)c(C)c(Nc2nnc(C[C@H](C)O)o2)c1 stay below 40 nM?
1

Does the reported EC50 of Cc1c(CN2CCN(C(=O)OC(C)C)[C@@H](C)C2)cc(Cl)cc1Nc1nnc(C2CNC(=O)C2)o1 (some centres unmarked) stay below 40 nM?
-1

Does the reported EC50 of Cc1cc(CN2CCN(C(=O)OC(C)C)[C@@H](C)C2)c(C)c(Nc2nnc([C@H]3NCC[C@H]3O)o2)c1 stay below 40 nM?
-1

Does the reported EC50 of Cc1cc(CN2CCN(C(=O)OC(C)C)[C@@H](C)C2)c(C)c(Nc2nnc([C@@H]3CNC(=O)C3)o2)c1 stay below 40 nM?
-1

Does the reported EC50 of Cc1c(CN2CCN(C(=O)OC(C)C)[C@@H](C)C2)cc(Cl)cc1Nc1nnc(C2COC2)o1 stay below 40 nM?
1

Does the reported EC50 of Cc1c(CN2CCN(C(=O)C3CCC3)[C@@H](C)C2)cc(C(F)F)cc1Nc1nnc([C@H](C)O)o1 stay below 40 nM?
-1

Does the reported EC50 of Cc1c(CN2CCN(C(=O)OC(C)C)[C@@H](C)C2)cc(Cl)cc1Nc1nnc([C@H](C)O)o1 stay below 40 nM?
1

Does the reported EC50 of Cc1cc(CN2CCN(C(=O)OC(C)C)[C@@H](C)C2)c(C)c(Nc2nnc(-c3ccnn3C)o2)c1 stay below 40 nM?
1

Does the reported EC50 of Cc1cc(CN2CCN(C(=O)OC(C)C)[C@@H](C)C2)c(C)c(Nc2nnc([C@@H](N)[C@@H](C)O)o2)c1 stay below 40 nM?
-1

Does the reported EC50 of Cc1c(CN2CCN(C(=O)OC(C)(C)C)[C@@H](C)C2)cc(Cl)cc1Nc1ncc(CO)o1 stay below 40 nM?
-1

Does the reported EC50 of Cc1c(CN2CCN(C(=O)OC(C)C)[C@@H](C)C2)cc(Cl)cc1Nc1nnc([C@H]2C[C@H](O)C2)o1 stay below 40 nM?
-1

Does the reported EC50 of Cc1cc(CN2CCN(C(=O)OC(C)(C)C)[C@@H](C)C2)c(C)c(Nc2nnc(-c3nonc3C)o2)c1 stay below 40 nM?
1

Does the reported EC50 of Cc1cc(CN2CCN(C(=O)C3CCC(F)(F)C3)[C@@H](C)C2)c(C)c(Nc2nnc(CC#N)o2)c1 (some centres unmarked) stay below 40 nM?
-1

Does the reported EC50 of Cc1c(CN2CCN(C(=O)c3ccccc3)[C@@H](C)C2)cc(Cl)cc1Nc1nnc(CCC#N)o1 stay below 40 nM?
1

Does the reported EC50 of Cc1cc(CN2CCN(C(=O)OCC(F)(F)F)[C@@H](C)C2)c(C)c(Nc2nnc([C@H]3NCC[C@H]3O)o2)c1 stay below 40 nM?
-1

Does the reported EC50 of Cc1cc(CN2CCN(C(=O)C3CC3)[C@@H](C)C2)c(C)c(Nc2nnc(CC#N)o2)c1 stay below 40 nM?
-1

Does the reported EC50 of Cc1c(CN2CCN(C(=O)OC(C)C)[C@@H](C)C2)cc(Cl)cc1Nc1nnc(C(O)C(F)(F)F)o1 (some centres unmarked) stay below 40 nM?
1

Does the reported EC50 of Cc1cc(CN2CCN(C(=O)OC(C)C)[C@@H](C)C2)c(C)c(Nc2nnc([C@@H]3CCCN3S(C)(=O)=O)o2)c1 stay below 40 nM?
-1

Does the reported EC50 of CC[C@@H](C)OC(=O)N1CCN(Cc2cc(C)cc(Nc3nnc([C@H]4NCC[C@H]4O)o3)c2C)C[C@@H]1C stay below 40 nM?
1

Does the reported EC50 of Cc1c(CN2CCN(C(=O)c3ccccc3)[C@@H](C)C2)cc(Cl)cc1Nc1nnc(C2CCOC2)o1 (some centres unmarked) stay below 40 nM?
1

Does the reported EC50 of Cc1cc(CN2CCN(C(=O)C3CCCC3)[C@@H](C)C2)c(C)c(Nc2nnc([C@@H](C)O)o2)c1 stay below 40 nM?
1

Does the reported EC50 of Cc1c(CN2CCN(C(=O)OC(C)C)[C@@H](C)C2)cc(Cl)cc1Nc1nnc(C2(CO)CC2)o1 stay below 40 nM?
1

Does the reported EC50 of Cc1cc(CN2CCN(C(=O)C3CCC3)[C@@H](C)C2)c(C)c(Nc2nnc([C@@H](C)O)o2)c1 stay below 40 nM?
-1
